# Assayed Target: PCSK9 (Homo sapiens)
# Construct: biotin (biotinylated); purchased
# Sequence (Q8NBP7 153-692): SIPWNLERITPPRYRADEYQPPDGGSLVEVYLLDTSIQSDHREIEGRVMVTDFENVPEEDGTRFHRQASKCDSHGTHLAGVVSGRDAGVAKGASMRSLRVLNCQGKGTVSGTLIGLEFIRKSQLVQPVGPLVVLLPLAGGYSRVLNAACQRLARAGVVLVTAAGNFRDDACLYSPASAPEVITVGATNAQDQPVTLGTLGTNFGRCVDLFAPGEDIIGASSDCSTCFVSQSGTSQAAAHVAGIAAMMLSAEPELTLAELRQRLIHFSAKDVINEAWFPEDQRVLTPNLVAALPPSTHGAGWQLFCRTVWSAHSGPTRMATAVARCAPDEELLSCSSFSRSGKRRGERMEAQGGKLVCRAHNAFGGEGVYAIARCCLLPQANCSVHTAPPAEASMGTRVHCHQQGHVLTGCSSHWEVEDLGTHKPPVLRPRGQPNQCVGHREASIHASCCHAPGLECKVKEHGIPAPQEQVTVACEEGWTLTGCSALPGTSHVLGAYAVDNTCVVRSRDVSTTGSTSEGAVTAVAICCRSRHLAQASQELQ
# Assay Procedure: PCSK9 Alexa FRET Plus TR-FRET assay
# Type: binding
Observation Type: pKi
Value format note: pKi is -log10 of concentration (mol/L); just state the number.

- Molecule: "COc1ccc(C[C@@H]2NC(=O)[C@H]([C@@H](C)O)NC(=O)[C@@H]3[C@@H]4CCN3C(=O)[C@@H]3Cc5cn(c6ccc(F)cc56)CCCCCCN(Cc5ccc(cc5)CCNC(=O)[C@]5(C)CCCN5C2=O)C(=O)CCC(=O)N[C@@H](C)C(=O)N[C@H](CNC(=O)CCOCCOCC[N+](C)(C)CCNC(=O)COCCOCCNC(=O)COCCOCCNC(=O)CC(CC(=O)O)NC(=O)CC[C@H](NC(=O)CCCCCCCCCCCCCCCCC(=O)O)C(=O)O)C(=O)N[C@@H](Cc2cccc(c2)CNC(=O)CO4)C(=O)N3)cc1 (stereo partly shown) [Ex-16]"
  Observed: 10.85
- Molecule: "COc1ccc(C[C@@H]2NC(=O)[C@H]([C@@H](C)O)NC(=O)[C@@H]3[C@@H]4CCN3C(=O)[C@@H]3Cc5cn(c6ccc(F)cc56)CCCCCCN(Cc5ccc(cc5)CCNC(=O)[C@]5(C)CCCN5C2=O)C(=O)CCC(=O)N[C@@H](C)C(=O)N[C@H](CNC(=O)CCOCCOCC[N+](C)(C)CCNC(=O)COCCOCCNC(=O)COCCOCCNC(=O)CC[C@H](NC(=O)CC[C@H](NC(=O)CCCCCCCCCCCCCCCCC(=O)O)C(=O)O)C(=O)O)C(=O)N[C@@H](Cc2cccc(c2)CNC(=O)CO4)C(=O)N3)cc1 [Ex-10]"
  Observed: 11.10

# context switch: different molecule, same pKi
Query: Fill in pKi for record COc1ccc(C[C@@H]2NC(=O)[C@H]([C@@H](C)O)NC(=O)[C@@H]3[C@@H]4CCN3C(=O)[C@@H]3Cc5cn(c6ccc(F)cc56)CCCCCCN(Cc5ccc(cc5)CCNC(=O)[C@]5(C)CCCN5C2=O)C(=O)CCC(=O)N[C@@H](C)C(=O)N[C@H](CNC(=O)CCCCC[N+](C)(C)CCNC(=O)COCCOCCNC(=O)COCCOCCNC(=O)CC[C@H](NC(=O)CCCCCCCCCCCCCCCCCCC(=O)O)C(=O)O)C(=O)N[C@@H](Cc2cccc(c2)CNC(=O)CO4)C(=O)N3)cc1 [Ex-27]
Response: 10.85

* * *

# Assayed Target: PCSK9 (Homo sapiens)
# Construct: biotin (biotinylated); purchased
# Assay Procedure: PCSK9 Alexa FRET Plus TR-FRET assay
# Type: binding
# Condition Context: Ki calculated from IC50 and KD of AF cyclic peptide Reagent B; 0.5 nM PCSK9, 960 nM AF cyclic peptide; read-out: Alexa FRET Plus TR-FRET
Observation Type: Ki (pM)
Give the value in pM but do not write pM after it.

// below: answered compounds
- Smiles Code: "COc1ccc(C[C@@H]2NC(=O)[C@H]([C@@H](C)O)NC(=O)[C@@H]3[C@@H]4CCN3C(=O)[C@@H]3Cc5cn(c6ccc(F)cc56)CCCCCCN(Cc5ccc(cc5)CCNC(=O)[C@]5(C)CCCN5C2=O)C(=O)CCC(=O)N[C@@H](C)C(=O)N[C@H](CNC(=O)COCCOCCNC(=O)COCCOCCNC(=O)CCOCCOCC[N+](C)(C)CCNC(=O)COCCOCCNC(=O)COCCOCCNC(=O)CC[C@H](NC(=O)CCCCCCCCCCCCCCCCC(=O)O)C(=O)O)C(=O)N[C@@H](Cc2cccc(c2)CNC(=O)CO4)C(=O)N3)cc1"
  Ki / pM: 11
- Smiles Code: "COc1ccc(C[C@@H]2NC(=O)[C@H]([C@@H](C)O)NC(=O)[C@@H]3[C@@H]4CCN3C(=O)[C@@H]3Cc5cn(c6ccc(F)cc56)C/C=C/CCCN(Cc5ccc(cc5)CCNC(=O)[C@]5(C)CCCN5C2=O)C(=O)CCC(=O)N[C@@H](C)C(=O)N[C@H](CNC(=O)CCCCC[N+](C)(C)CCNC(=O)COCCOCCNC(=O)COCCOCCNC(=O)CC[C@H](NC(=O)CCCCCCCCCCCCCCCCC(=O)O)C(=O)O)C(=O)N[C@@H](Cc2cccc(c2)CNC(=O)CO4)C(=O)N3)cc1"
  Ki / pM: 6
- Smiles Code: "COc1ccc(C[C@@H]2NC(=O)[C@H]([C@@H](C)O)NC(=O)[C@@H]3[C@@H]4CCN3C(=O)[C@@H]3Cc5cn(c6ccc(F)cc56)CCCCCCN(Cc5ccc(cc5)CCNC(=O)[C@]5(C)CCCN5C2=O)C(=O)CCC(=O)N[C@@H](C)C(=O)N[C@H](CNC(=O)COCC[N+](C)(C)CCOCCNC(=O)COCCOCCNC(=O)COCCOCCNC(=O)CC[C@H](NC(=O)CCCCCCCCCCCCCCCCC(=O)O)C(=O)O)C(=O)N[C@@H](Cc2cccc(c2)CNC(=O)CO4)C(=O)N3)cc1"
  Ki / pM: 7
- Smiles Code: "COc1ccc(C[C@@H]2NC(=O)[C@H]([C@@H](C)O)NC(=O)[C@@H]3[C@@H]4CCN3C(=O)[C@@H]3Cc5cn(c6ccc(F)cc56)CCCCCCN(Cc5ccc(cc5)CCNC(=O)[C@]5(C)CCCN5C2=O)C(=O)CCC(=O)N[C@@H](C)C(=O)N[C@H](CN(CCC[N+](C)(C)C)C(=O)COCCOCCNC(=O)COCCOCCNC(=O)CC[C@H](NC(=O)CCCCCCCCCCCCCCCCC(=O)O)C(=O)O)C(=O)N[C@@H](Cc2cccc(c2)CNC(=O)CO4)C(=O)N3)cc1"
  Ki / pM: 16
- Smiles Code: "COc1ccc(C[C@@H]2NC(=O)[C@H]([C@@H](C)O)NC(=O)[C@@H]3[C@@H]4CCN3C(=O)[C@@H]3Cc5cn(c6ccc(F)cc56)CCCCCCN(Cc5ccc(cc5)CCNC(=O)[C@]5(C)CCCN5C2=O)C(=O)CCC(=O)N[C@@H](C)C(=O)N[C@H](CNC(=O)COCCOCCNC(=O)CCOCCOCC[N+](C)(C)CCNC(=O)COCCOCCNC(=O)COCCOCCNC(=O)CC[C@H](NC(=O)CCCCCCCCCCCCCCCCC(=O)O)C(=O)O)C(=O)N[C@@H](Cc2cccc(c2)CNC(=O)CO4)C(=O)N3)cc1"
  Ki / pM: 9

Query: Fill in Ki for record "COc1ccc(C[C@@H]2NC(=O)[C@H]([C@@H](C)O)NC(=O)[C@@H]3[C@@H]4CCN3C(=O)[C@@H]3Cc5cn(c6ccc(F)cc56)CCCCCCN(Cc5ccc(cc5)CCNC(=O)[C@]5(C)CCCN5C2=O)C(=O)CCC(=O)N[C@@H](CNC(=O)CCOCCOCC[N+](C)(C)CCNC(=O)COCCOCCNC(=O)COCCOCCNC(=O)CC[C@H](NC(=O)CC[C@H](NC(=O)CCCCCCCCCCCCCCCCC(=O)O)C(=O)O)C(=O)O)C(=O)N[C@H](C)C(=O)N[C@@H](Cc2cccc(c2)CNC(=O)CO4)C(=O)N3)cc1"
Response: 18
